Test system: MS2 coat protein
Assay: apparent KD of MS2 coat protein; designed switch direction (-1 OFF switch, 1 ON switch): -1; higher = weaker reporter binding
Conditions: input ligand: FMN 200 uM
Param threshold (30 nM) applies to apparent KD of MS2 coat protein; output T when value >= threshold, F when value < threshold.

Does AUCGUGCAGCUUUGCUGUACGAGUACAUGAGGAUCACCCAUGUAGGAUAUGGUACGCUUUGCGUGCUAGAAGGAUAUGAGAUGU [JL ENG3 1.49] (Eterna round: R96, puzzle: Exclusion NG 3) have a reported apparent KD of MS2 coat protein of at least 30 nM? T

Does UCACGGGACUGAGGAUAUACAUGAACCAUUUUUGUAGAAGGCAGAAUGUUAGAUCAUACACUAAACAUGAGGAUCACCCAUGUU [JR_ExcNG1_Sub025] (Eterna round: R96, puzzle: Exclusion NG 1) have a reported apparent KD of MS2 coat protein of at least 30 nM? F

---

Listed here: items and their measured apparent KD of K4 kissing-loop reporter.
Tested on: K4 kissing-loop RNA reporter;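 further: bound reporter read as fluorescence of individual clusters on recovered sequencing chips by microscopy, with normalized cluster intensities fitted with a binding model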
Experiment: apparent KD of K4 kissing-loop reporter; higher = weaker reporter binding
Conditions: Eterna round: R107; input ligand: theophylline 20 uM
State the answer as a number, implicitly in nM.

sequence chain	apparent KD of K4 kissing-loop reporter / nM
AUUAUAUUGUGAAGGAGCGCGCAUAGUAGUGAUGUUACUAUGACAUAUCUUAUUUAAUUCUCGCAGGUAGGUCGCACAUUAUAUA [JR_Nu_ExcArginiB_Sub026]	65.5
GUAUCGCUAGGAGGAUAUUUCAUAUAAUAUAUAAAUGGAUAUACGGAGUGAUGUUCCGAUUUACGGAAAGAAGGCCUAGUGAUAC [FMN B 18]	229
AAAUUUUCAAGUGAUACCAGACAUUUUUAUUUCUUUAUUUAUGCUAAGUGAUGUUUAGCAGUCCCUUGGCAGCACUAUUUAAUUA [JR_Nu_SSTheophyB_Sub030]	231
ACGUGCACCAGUGAUGUUGGAAAAUAUGAAGGAGCGGGUGAAAGCCCAGGUAGGUCGCAUAAUAGCACGAGCCACGAAAGUGGCA	154
GCCGUACGCAUGGAUACCAGUUGCGAAGUGAUGUUUCGGGCGAUCAAAGGAUCGCCCAACAACCCUUGGCAGCCAUGCGUACGGC	108

Name the recorded apparent KD of K4 kissing-loop reporter of AAGCAGUCACUCGAAGCCAUCGAAGAUGGGCGAGGACCGGUACGGCCGCCACUCGGAGUGAUGUUCCGAAGACUGCAAAAUAAAA , assay system K4 kissing-loop RNA reporter. 508

Name the recorded apparent KD of K4 kissing-loop reporter of UAUUAAUUGUCAGGAUAUCGAAAUCGAGUGAUGUUCGUAAAUUAAUUAUUAUUAAUAAUAUUUAAACGAGAAGGGACAUUAUUUA [JR_SSFMNB_Sub001] , assay system K4 kissing-loop RNA reporter. 647

Name the recorded apparent KD of K4 kissing-loop reporter of UCCUUUGUUGCCAGUGAUGUUGGACAGGAAGGAGCGGGCAUAAGCCCAGGUAGGUCGCCUGUCAACUUUCUUAUAGCCCGAAGGU [KL-XArg-A19] , assay system K4 kissing-loop RNA reporter. 424

Name the recorded apparent KD of K4 kissing-loop reporter of CGCCAGGGUGAAGGAUAUCCGUCUGAUUGAGCGCAGUGAUGUUGCGCGAUUCGUUCAUCGCUCGGAGGAGAAGGUCAGAUAACUC [theeternabot_sameState_KL_FMN_B_3] , assay system K4 kissing-loop RNA reporter. 121

Name the recorded apparent KD of K4 kissing-loop reporter of UCCACGCUUCGAGGAUAUCGGAUUAGAGUGAUGUUCUAAAGACGCCCAGUGAUGUUGGAUGCGAUACGAGAAGGCGGUGGCGUGU [Same State FMN B GF6] , assay system K4 kissing-loop RNA reporter. 140

Name the recorded apparent KD of K4 kissing-loop reporter of UGAUACCAGACUGAUACCAGCGAGUGAUGUUCGCUGAAAUCAGGGUCAAAGACCCUGUCUCGCCCUUGGCAGCAGUCUGGUAUCU [TheoBX 20 #SwitchBubble #StaticStem] , assay system K4 kissing-loop RNA reporter. 185

Name the recorded apparent KD of K4 kissing-loop reporter of AAGGGCGGAACAACCUCGCCGGAUAGAGAUACCAGCCCAGCAAUGGGCCCUUGGCAGCUCACUGACCUCAGUGAUGUUGAGGUUC [Laar] , assay system K4 kissing-loop RNA reporter. 188

Name the recorded apparent KD of K4 kissing-loop reporter of CCUUCUCUUGAUAGUGAUGUUAUCGAGGACAAGGAUAUCAUCUCAAUGAGAAGGUGUCCUUGAUAACAUGGAGGUCUGAAACAGA [Omei KL FMN A Exc C v9] , assay system K4 kissing-loop RNA reporter. 427

Name the recorded apparent KD of K4 kissing-loop reporter of UGUAAUUCGGCGGCCGCCACUGACCAUAGCCUUCGAUGGCCAGUGAUGUUGGCCUCUGGCUCUAACAGGACCGGGCCGAAUUGCG [Sotetiqu] , assay system K4 kissing-loop RNA reporter. 157

Name the recorded apparent KD of K4 kissing-loop reporter of UGUAUGUGAUUUGAUACCAGACCAGCUGGUGGUUCACGAGUGAUGUUCGUGUUGGUUUGGGUCCCUUGGCAGCAAAUCGCAUACU [KL-SSTheoB12] , assay system K4 kissing-loop RNA reporter. 128

Name the recorded apparent KD of K4 kissing-loop reporter of AUUUAAUUAACUGAUACCAGACUUUAAGUAAUUAUUAAAACUAGUGAUGUUAGUUUAUCUGUCCCUUGGCAGCAGUUUCUACUUA [JR_Nu_ExcTheophyB_Sub020] , assay system K4 kissing-loop RNA reporter. 135

Name the recorded apparent KD of K4 kissing-loop reporter of GACGUGCGAGAGACCGCUCUACCUUGAGAUCGAGGACCGGUACGGCCGCCACUCGGUGUUUAACGUCGAUCCCAGUGAUGUUGGA [theeternabot_sameState_KL_Trp_A_21] , assay system K4 kissing-loop RNA reporter. 450

Name the recorded apparent KD of K4 kissing-loop reporter of UUAUAUAUAUCAGAUACCAGCAUAAUGGAAACAAAUUAUGUUAUGAGUGAUGUUCAUGUAUGCCCUUGGCAGCUGGUAUGGGUUU [KL-XTheo-B19] , assay system K4 kissing-loop RNA reporter. 487

Name the recorded apparent KD of K4 kissing-loop reporter of UUUAACGAGUGAUGUUCGAAAAGUAAUGGUGAGGAUAUCGAUUUUUCGAGAAGGCACCUCGAAGUGAUACGAAAGUAUCGCUUCG [FMN A 4] , assay system K4 kissing-loop RNA reporter. 257

Name the recorded apparent KD of K4 kissing-loop reporter of GUAUCGCUAGGAGGAUAUUUCAAUUCGCCUAUAAAUGGUGAUACGGAGUGAUGUUCCGAUUUACGGAAAGAAGGCCUAGUGAUAC [FMN B 8] , assay system K4 kissing-loop RNA reporter. 298

Name the recorded apparent KD of K4 kissing-loop reporter of GACAGCCGGUCGGCCGCCACUUGGAGUGAUGUUCCGCGCGGCGGGCGCCGGAGGGCGUUAAGCCCAAGGACCGGGACCGGUAACG [Celeso] , assay system K4 kissing-loop RNA reporter. 114

Name the recorded apparent KD of K4 kissing-loop reporter of AGAGUUAUGAGAGGAUAUGCGGCUAGUACUCAAAGAGUACUAGCAGCAGAGUGAUGUUCUGUGAAAGCAGAAGGUUCAUAACUCA [#06 K4 FMN B Same State] , assay system K4 kissing-loop RNA reporter. 563

Name the recorded apparent KD of K4 kissing-loop reporter of GAAAGAAAGUAUGAUACCAGACACCCGAGUGAUGUUCGGAGCAGAGUGAUGUUCUUUUAAGUCCCUUGGCAGCAUAAAAGAAAAG [whbob_SS_Theo_B_sa83] , assay system K4 kissing-loop RNA reporter. 294

Name the recorded apparent KD of K4 kissing-loop reporter of AGGAGCGUGCGAUGCAAAUCGCACGCUCCUCGAGGACCGGUACGGCCGCCACUCGCUCGCGCCGAGUGAUGUUCGGCCGGCGAAC [#2 Same State - Tryptophan A Attempt #10 (HarryS)] , assay system K4 kissing-loop RNA reporter. 289
